B1: HDV Ribozyme (parent)
chain: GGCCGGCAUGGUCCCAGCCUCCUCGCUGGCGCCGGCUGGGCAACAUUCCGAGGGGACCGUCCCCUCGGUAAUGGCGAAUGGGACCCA

# Variants of: B1
# experiment.summary: self-cleavage, relative activity (ratio to wild type); higher = more cleavage; co-transcriptional
experimental.readout: self-cleavage
Number, no unit, nothing else.

Examples with their reported self-cleavage follow.
[[record]]
input_sequence = "GGCCGGCACGGUCCCAGCCUCCUCGCUGGCGCCGGCUGGGCAACAUUCCGAGUGGACCGUCCCCUCGGUAAUGGCGAAUGGGACCCA"
experimental_readout = "self-cleavage"
result_value = 1.26

[[record]]
input_sequence = "GGCCGGCAUGGUCCGAGCCUCCUCGCUGGCGCCGGGUGGGCAACAUUCCGAGGGGACCGUCCCCUCGGUAAUGGCGAAUGGGACCCA"
experimental_readout = "self-cleavage"
result_value = 0

[[record]]
input_sequence = "GGCCGGCAUGGUCCCAGCCUCCUCGCGGGCGCCGGCUGGGCAACAUUCCGAGGGGUCCGUCCCCUCGGUAAUGGCGAAUGGGACCCA"
experimental_readout = "self-cleavage"
result_value = 0.692

[[record]]
input_sequence = "GGCCGGCAUGGUCCCAGCCUCCUCGCUGGCGCCGGCUGGGCAACAUUCCGUGGGGACCGUCCCCUCGGUAAUAGCGAAUGGGACCCA"
experimental_readout = "self-cleavage"
result_value = 0.607

[[record]]
input_sequence = "GGCCGGCAUGGUCCCAGCCUCCUCGCUGGCGCCGGCUGGGCAACAUUCCGAGGGGACCGUCCCCUCGGUAAUGGCGAAUGGCUCCCA"
experimental_readout = "self-cleavage"
result_value = 0.237

[[record]]
input_sequence = "GGCCGGCAUGGUCCCAGCCUCCUUGCUGGCGCCGGCUGGGCAACAUUCCGAGGGGACCGUCCCCUCGGGAAUGGCGAAUGGGACCCA"
experimental_readout = "self-cleavage"
result_value = 0.764


Bench note: what self-cleavage did GGCCCGCAUGGUCCCAGCCUCCGCGCUGGCGCCGGCUGGGCAACAUUCCGAGGGGACCGUCCCCUCGGUAAUGGCGAAUGGGACCCA show? 0.0615

Field request: self-cleavage | item: GGCCGGCAUGGUCCCAGCCCCCUCGCUGGCGCCGGCUGGGCAACAUUCCGAGGGGUCCGUCCCCUCGGUAAUGGCGAAUGGGACCCA 0.266

Quick check: self-cleavage of GGCCGGCAUGGUCCCAGCCUCCUCGCUGGCGCCGGCUGGGCAACAUUCCGAGGGUACCGUCGCCUCGGUAAUGGCGAAUGGGACCCA ? 0.793

Give the measured self-cleavage of GGCCGGCAUGGUCCCAGCCUCCUCGCUGGCGCAGGCUGGGCAACAUUCCGAGGGGACCGUCCCCUCGGUAAUGGGGAAUGGGACCCA . 0.145

Can you share its self-cleavage? I mean this variant: GGCCGGCAUGGUCCAAGCCUCCUUGCUGGCGCCGGCUGGGCAACAUUCCGAGGGGACCGUCCCCUCGGUAAUGGCGAAUGGGACCCA 0.0811
